Collected IC50 values appear next to each entry.
- targetOfAssay: Human Factor D (Homo sapiens (Human), UniProt P00746)
- Sequence (P00746 26-253): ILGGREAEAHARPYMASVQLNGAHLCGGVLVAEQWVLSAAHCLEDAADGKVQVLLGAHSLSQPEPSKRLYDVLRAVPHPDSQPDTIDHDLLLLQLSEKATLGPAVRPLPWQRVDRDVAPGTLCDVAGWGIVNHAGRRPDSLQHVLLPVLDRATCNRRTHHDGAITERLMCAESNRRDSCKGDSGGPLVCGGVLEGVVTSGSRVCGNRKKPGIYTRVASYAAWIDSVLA
- measurementProtocol: Human Factor D Assay
- Assay type: biochemical
- experimentalContext: Human Factor D 80 nM, substrate Z-L-Lys-SBzl; read-out: IC50

Known results for compounds:
compound | readoutType | resultValue
COc1ncc(-c2ccc3c(c2)c(C(C)=O)cn3CC(=O)N2C[C@H](F)C[C@H]2C(=O)NCc2cccc(Cl)c2F)cn1 | IC50 | < 1000 nM
NC(=O)c1nn(CC(=O)N2C[C@H](F)C[C@H]2C(=O)Nc2cccc(OC(F)(F)F)c2F)c2ccc(-c3cncnc3)cc12 | IC50 | < 1000 nM
CC(=O)c1nn(CC(=O)N2[C@@H]3C[C@@H]3C[C@H]2C(=O)Nc2cccc(-c3ccccc3Cl)c2F)c2ccc(-c3cnc(C)nc3)cc12 | IC50 | < 1000 nM

Task: # IC50 lookup, item CC(=O)c1cn(CC(=O)N2C[C@H](F)C[C@H]2C(=O)NC2CCCc3nc(-c4ccc(F)cc4)sc32)c2ccc(-c3ccnnc3)cc12 (stereo partly shown)
Result: > 10000 nM

----------
# pIC50 values compiled below
- targetOfAssay: Human Factor D (Homo sapiens (Human), UniProt P00746)
- measurementProtocol: Human Factor D Assay
- Format: biochemical
pIC50: −log10 of the molar value.

Example compounds with recorded pIC50:
mol | targetOfAssay | pIC50
Cc1ncc(-c2ccc3c(c2)c([C@H](C)O)nn3CC(=O)N2C[C@H](F)C[C@H]2C(=O)Nc2cccc(Br)n2)cn1 | Human Factor D (Homo sapiens (Human), UniProt P00746) | 5.00 to 6.00
CC(=O)c1nn(CC(=O)N2[C@@H]3CC[C@@H](C3)[C@H]2C(=O)Nc2cccc(Br)n2)c2ccc(-c3cnc(C)nc3)cc12 | Human Factor D (Homo sapiens (Human), UniProt P00746) | > 6.00

Let us examine a further case.
Task: Requested read-out: pIC50. Entry: `CC(=O)c1nn(CC(=O)N2C[C@H](F)C[C@H]2C(=O)Nc2cccc(Br)[n+]2[O-])c2ccc(-c3cnc(C)nc3)cc12`
Result: 5.00 to 6.00

----------
- targetOfAssay: Human Factor D (Homo sapiens (Human))
- measurementProtocol: Human Factor D Assay
- Format: biochemical
- experimentalContext: Human Factor D 80 nM, substrate Z-L-Lys-SBzl; read-out: IC50
pIC50: −log10 of the molar value.
The entries below come with measured pIC50 values attached.

molecule | pIC50
CC(=O)c1cn(CC(=O)N2C[C@H](F)C[C@H]2C(=O)Nc2ccc(CNC(=O)OCC3c4ccccc4-c4ccccc43)cc2)c2ccc(-c3ccnnc3)cc12 | < 5.00
CC(=O)c1cn(CC(=O)N2C[C@H](F)C[C@H]2C(=O)Nc2ccc3ccccc3c2)c2ccc(-c3ccnnc3)cc12 | < 5.00
CC(=O)c1cn(CC(=O)N2C[C@H](F)C[C@H]2C(=O)Nc2cccc(-c3ccccc3Cl)c2F)c2ccc(-c3cnc(O)nc3)cc12 | > 6.00
NC(=O)c1nn(CC(=O)N2C[C@H](F)C[C@H]2C(=O)Nc2cccc(-c3ccccc3Cl)c2F)c2cnc(-c3cncnc3)cc12 | > 6.00
COc1ncc(-c2ccc3c(c2)c(C(N)=O)nn3CC(=O)N2C[C@H](F)C[C@H]2C(=O)Nc2cccc(-c3ccccc3Cl)c2F)cn1 | > 6.00

Task: Can you look up the measured pIC50 of `CC(=O)c1cn(CC(=O)N2C[C@H](F)C[C@H]2C(=O)Nc2nc(-c3cccc(Cl)c3)ns2)c2ccc(-c3ccnnc3)cc12` for me?
Result: < 5.00

Task: Continue with Cn1cc(N2CCCC(NC(=O)[C@@H]3C[C@@H](F)CN3C(=O)Cn3nc(C(N)=O)c4cc(-c5ccnnc5)ccc43)C2)cn1 (stereo partly shown)
Result: < 5.00

Task: And for `CC(=O)c1cn(CC(=O)N2C[C@H](F)C[C@H]2C(=O)Nc2cccc(Br)n2)c2ccc(-c3cnc(F)nc3)cc12` ?
Result: > 6.00

Task: Cool, now `NC(=O)c1nn(CC(=O)N2C[C@H](F)C[C@H]2C(=O)N[C@H]2CCCC[C@@H]2O)c2ccc(-c3ccnnc3)cc12`
Result: < 5.00
